The listing below reports pKi for molecules tested on 5-hydroxytryptamine receptor 2A (Rattus norvegicus, UniProt P14842).
Sequence (P14842 whole entry): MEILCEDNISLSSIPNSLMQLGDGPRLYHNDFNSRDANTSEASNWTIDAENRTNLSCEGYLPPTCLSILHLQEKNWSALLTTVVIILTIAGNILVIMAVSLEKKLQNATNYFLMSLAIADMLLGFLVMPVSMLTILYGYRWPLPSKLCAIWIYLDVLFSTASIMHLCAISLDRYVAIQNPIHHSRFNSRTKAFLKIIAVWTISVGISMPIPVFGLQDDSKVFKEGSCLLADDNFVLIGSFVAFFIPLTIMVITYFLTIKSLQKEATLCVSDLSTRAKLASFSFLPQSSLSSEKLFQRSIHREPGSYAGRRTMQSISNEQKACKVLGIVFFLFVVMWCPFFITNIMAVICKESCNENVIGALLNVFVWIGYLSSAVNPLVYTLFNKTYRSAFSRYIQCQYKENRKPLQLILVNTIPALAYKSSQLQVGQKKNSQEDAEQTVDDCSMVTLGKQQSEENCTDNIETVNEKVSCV
pKi: −log10 of the molar value.
readout-label: pKi

>>> recorded_measurement("O=c1n(CCCCCCNCC2CCc3ccccc3O2)c(O)c2n1CCC2 (stereo not given)")
"< 6.00"
>>> recorded_measurement("O=c1n(Cc2cccc(CNCC3CCc4ccccc4O3)c2)c(O)c2n1CCC2 (stereo not given)")
"< 6.00"
>>> recorded_measurement("O=c1scc(O)n1CCCCNCC1CCc2ccccc2O1 (stereo not given)")
"< 6.00"
>>> recorded_measurement("O=c1n(CCCNCC2CCc3ccccc3O2)c(O)c2n1CCC2 (stereo not given)")
"< 6.00"
>>> recorded_measurement("O=c1n(CCCCCNCC2CCc3ccccc3O2)c(O)c2n1CCC2 (stereo not given)")
"< 6.00"
>>> recorded_measurement("O=c1n(CCCCNCc2ccc3ccccc3n2)c(O)c2n1CCC2")
"< 6.00"
>>> recorded_measurement("O=c1scc(O)n1CCCCCCNCC1CCc2ccccc2O1 (stereo not given)")
"< 6.00"
>>> recorded_measurement("O=c1n(C/C=C/CNCC2CCc3ccccc3O2)c(O)c2n1CCC2 (stereo not given)")
"< 6.00"
>>> recorded_measurement("O=c1n(CCCCNCCc2cccc3ccccc23)c(O)c2n1CCC2")
"< 6.00"
>>> recorded_measurement("O=c1scc(O)n1CCCCCNCC1CCc2ccccc2O1 (stereo not given)")
"< 6.00"
